Compiled literature pIC50, tested on ROCK2 (Homo sapiens).
pIC50: −log10 of the molar value.
measured_quantity: pIC50

[I] Cc1cncc2sc(NC(=O)C3CC3c3cc(C(=O)NCc4ncccn4)cs3)cc12 (stereo not shown)
[II] Cc1nc(-c2ccc3cc(C(=O)Nc4ccnnc4)[nH]c3c2)nc(Nc2ccc3[nH]ncc3c2)c1C
[III] Cc1sc(NC(=O)Cc2ccc(Oc3ncccc3C(N)=O)c(F)c2)nc1-c1ccncc1
Ask | Quick one: which order do the items above go in by pIC50, smallest to largest? Lab note: final answer is the ordered label list.
Reply | II, III, I
(II: 6.53, III: 7.62, I: 8.30)

====

pIC50: −log10 of the molar value.
Compiled literature pIC50, tested on ROCK2 (Homo sapiens, UniProt O75116).
measured_quantity: pIC50

Ask | Given O=C(c1ccccc1)N1CCC2(CC1)CCN(c1ccc(-c3cn[nH]c3)cc1)C2=O , state its recorded pIC50.
Reply | 6.49

Ask | Given [H][C@]1(Oc2ncccc2C(N)=O)C[C@]2(C[C@@H](Nc3ccnc(-c4cccc(C#N)c4)n3)C2)C1 (stereo partly drawn) , state its recorded pIC50.
Reply | 5.97

Ask | Given NC(=O)c1cccnc1Oc1ccc(CC(=O)Nc2nc3cc(-c4cc[nH]c(=O)c4)ccc3s2)cc1F , state its recorded pIC50.
Reply | 8.10

[A] COc1ccc(-c2csc(NC(=O)Cc3ccc(Oc4ncccc4C(N)=O)cc3)n2)cc1OC
[B] COc1cc(C(=O)NCc2c(F)ccc(F)c2Cl)ccc1-c1cn[nH]c1
[C] NC[C@@H](C(=O)Nc1cc2ccncc2s1)c1ccc(COC(=O)C2CCC(CO[N+](=O)[O-])CC2)cc1 (stereo partly drawn)
[D] Cn1c(C(=O)N2CC(F)(F)C2)cc2ccc(-c3nccc(Nc4ccc(-c5cn[nH]c5)c(F)c4)n3)cc21
Ask | Please produce an ascending ranking of these compounds based on pIC50. Lab note: final answer is the ordered label list.
Reply | A, C, D, B
(A: 6.84, C: 7.71, D: 8.05, B: 8.40)

[a] CNC(=O)c1cc2ccc(-c3nccc(Nc4ccc(-c5cn[nH]c5)cc4)n3)cc2[nH]1
[b] CN(C(=O)c1cc2ccc(-c3nccc(Nc4ccc(-c5cn[nH]c5)cc4)n3)cc2[nH]1)C1COC1
[c] C[C@H](C[C@@H]1NC(=O)N([C@H]2C[C@@]3(C[C@H](Oc4ncccc4C(N)=O)C3)C2)C1=O)C(F)(F)F (stereo partly drawn)
Ask | Parameters: sort_field (pIC50), sort_dir (desc). Lab note: final answer is the ordered label list.
Reply | c, b, a
(c: 8.22, b: 7.01, a: 6.68)

[P] COc1cccc(CNC(=O)c2cc3ccc(-c4ccncc4)nc3s2)c1
[Q] O=C1NCc2cc(Nc3nc(-c4ccc5c(c4)CN(C(=O)C4CC(F)(F)C4)C5)ncc3F)ccc21
Ask | Select one: P or Q . Criterion: greater recorded pIC50. Your choice should be expressed through its label.
Reply | P
(P: 7.76, Q: 6.54)

[a] COC(=O)c1ccc(S(=O)(=O)N2CCC3(CCN(c4ccc(-c5cn[nH]c5)c(OC)c4)C3=O)CC2)o1
[b] O=C(Nc1ccncc1)c1cc2ccc(-c3nccc(Nc4ccc5[nH]ncc5c4)n3)cc2[nH]1
[c] COc1cc(N2CCC3(CCN(C(=O)c4ccc(C(F)(F)F)cn4)CC3)C2=O)ccc1-c1cn[nH]c1
[d] O=C(N[C@H](CO)c1cccc(Cl)c1)c1cc(-c2ccncc2)n[nH]1
Ask | Parameters: sort_field (pIC50), sort_dir (desc). Lab note: final answer is the ordered label list.
Reply | d, b, c, a
(d: 8.00, b: 7.80, c: 6.59, a: 5.68)
